procedureText: Metabolic stability: dealkylation to compound A in in vitro incubations (HPLC)
Format: in vitro ADME
conditionNotes: human, liver 9000 g fraction; incubation time 2 h, 37° C.; R1-dealkylated metabolite; read-out: relative content of compound A
Counter-ions that a name gives are not always drawn.
endpointName: metabolised at 2 h (%)

• CCN(C(=O)c1cnc(N2CC(C)(C)NC2=O)nc1N)c1cccc(C(F)(F)F)c1 [Compound B, hydrochloride, reference compound] = 10
• CC1(C)CN(c2ncc(C(=O)N(CCF)c3cccc(C(F)(F)F)c3)c(N)n2)C(=O)N1 = 6
• CC1(C)CN(c2ncc(C(=O)N(CC(F)(F)F)c3cccc(C(F)(F)F)c3)c(N)n2)C(=O)N1 [Example 1, hydrochloride] = 3

====

procedureText: Metabolic stability: dealkylation to compound A in in vitro incubations (HPLC)
Format: in vitro ADME
conditionNotes: human, liver 9000 g fraction; incubation time 0.5 h, 37° C.; R1-dealkylated metabolite; read-out: relative content of compound A
Structures can show the parent of a compound that is named as a salt.
endpointName: metabolised at 0.5 h (%)

- CC1(C)CN(c2ncc(C(=O)N(CCF)c3cccc(C(F)(F)F)c3)c(N)n2)C(=O)N1: 2
- CCN(C(=O)c1cnc(N2CC(C)(C)NC2=O)nc1N)c1cccc(C(F)(F)F)c1 [Compound B, hydrochloride, reference compound]: 4
